- target: BAFF (PeproTech, Cat: 310-13) (UniProt Q9Y275 134-285)
- Sequence (Q9Y275 134-285 limits assumed): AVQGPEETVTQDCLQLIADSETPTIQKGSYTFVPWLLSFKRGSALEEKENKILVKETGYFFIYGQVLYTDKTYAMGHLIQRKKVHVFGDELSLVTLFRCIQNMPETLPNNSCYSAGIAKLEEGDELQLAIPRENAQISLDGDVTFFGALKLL
- test name: ELISA, BAFF coated; reference telitacicept
outcome measure: EC50 relative to telitacicept (fold)

{"binder": "B575703 (Fc fusion, TACI-BCMA fusion protein; also called TACI-T2-BCMA-ECD-Fc) SRVDQEERFPQGLWTGVAMRSCPEEQYWDPLLGTCMSCKTICNHQSQRTCAAFCRSLSCRKEQGKFYDHLLRDCISCASICGQHPKQCAYFCENKLRSPVNLPPELMLQMAGQCSQNEYFDSLLHACIPCQLRCSSNTPPLTCQRYCNASVTNSVKGTNADKTHTCPPCPAPEAEGAPSVFLFPPKPKDTLMISRTPEVTCVVVDVSHEDPEVKFNWYVDGVEVHNAKTKPREEQYNSTYRVVSVLTVLHQDWLNGKEYKCKVSNKALPSSIEKTISKAKGQPREPQVYTLPPSRDELTKNQVSLTCLVKGFYPSDIAVEWESNGQPENNYKTTPPVLDSDGSFFLYSKLTVDKSRWQQGNVFSCSVMHEALHNHYTQKSLSLSPGK", "unit of measure": "fold", "result number": 0.5}
{"binder": "B575701 (Fc fusion, TACI-BCMA fusion protein; also called TACI-d2-BCMA-ECD-Fc) LSCRKEQGKFYDHLLRDCISCASICGQHPKQCAYFCENKLRSPGMLQMAGQCSQNEYFDSLLHACIPCQLRCSSNTPPLTCQRYCNASVTNSVKGTNADKTHTCPPCPAPEAEGAPSVFLFPPKPKDTLMISRTPEVTCVVVDVSHEDPEVKFNWYVDGVEVHNAKTKPREEQYNSTYRVVSVLTVLHQDWLNGKEYKCKVSNKALPSSIEKTISKAKGQPREPQVYTLPPSRDELTKNQVSLTCLVKGFYPSDIAVEWESNGQPENNYKTTPPVLDSDGSFFLYSKLTVDKSRWQQGNVFSCSVMHEALHNHYTQKSLSLSPGK", "unit of measure": "fold", "result number": 0.5}
{"binder": "B575704 (Fc fusion, TACI-BCMA fusion protein; also called BCMA-ECD-TACI-T2-Fc) MLQMAGQCSQNEYFDSLLHACIPCQLRCSSNTPPLTCQRYCNASVTNSVKGTNASRVDQEERFPQGLWTGVAMRSCPEEQYWDPLLGTCMSCKTICNHQSQRTCAAFCRSLSCRKEQGKFYDHLLRDCISCASICGQHPKQCAYFCENKLRSPVNLPPELDKTHTCPPCPAPEAEGAPSVFLFPPKPKDTLMISRTPEVTCVVVDVSHEDPEVKFNWYVDGVEVHNAKTKPREEQYNSTYRVVSVLTVLHQDWLNGKEYKCKVSNKALPSSIEKTISKAKGQPREPQVYTLPPSRDELTKNQVSLTCLVKGFYPSDIAVEWESNGQPENNYKTTPPVLDSDGSFFLYSKLTVDKSRWQQGNVFSCSVMHEALHNHYTQKSLSLSPGK", "unit of measure": "fold", "result number": 0.25}
{"binder": "B575702 (Fc fusion, TACI-BCMA fusion protein; also called BCMA-ECD-TACI-d2-Fc) MLQMAGQCSQNEYFDSLLHACIPCQLRCSSNTPPLTCQRYCNASVTNSVKGTNALSCRKEQGKFYDHLLRDCISCASICGQHPKQCAYFCENKLRSPGDKTHTCPPCPAPEAEGAPSVFLFPPKPKDTLMISRTPEVTCVVVDVSHEDPEVKFNWYVDGVEVHNAKTKPREEQYNSTYRVVSVLTVLHQDWLNGKEYKCKVSNKALPSSIEKTISKAKGQPREPQVYTLPPSRDELTKNQVSLTCLVKGFYPSDIAVEWESNGQPENNYKTTPPVLDSDGSFFLYSKLTVDKSRWQQGNVFSCSVMHEALHNHYTQKSLSLSPGK", "unit of measure": "fold", "result number": 0.25}
